# reported drug sensitivity score; entries follow
# Tested on: CAF#2 (primary prostate cancer-associated fibroblasts of iCAF-like type)
# assayNotes: drug sensitivity score (DSS2, normalised partial AUC of dose-response, 72 h CellTiter-Glo viability) (DSS (dimensionless)); higher = more sensitive (stronger growth inhibition / cytotoxicity); extreme values may be limits of the assay

- molecule: "CN1CCN(C2CCC(n3cc(-c4ccc(Oc5ccccc5)cc4)c4c(N)ncnc43)CC2)CC1 (stereo unspecified) (tested concentration range 1-10000 nM)"
  drug sensitivity score: 14.6
- molecule: "C[C@]12CC[C@@H]3c4ccc(O)cc4C[C@@H](CCCCCCCCC[S+]([O-])CCCC(F)(F)C(F)(F)F)[C@H]3[C@@H]1CC[C@@H]2O (stereo partly specified) [Fulvestrant] (tested concentration range 0.1-1000 nM)"
  drug sensitivity score: 0
- molecule: "Oc1nc(-c2ccc(C(F)(F)F)cc2)nc2c1CSCC2 [XAV-939] (tested concentration range 1-10000 nM)"
  drug sensitivity score: 5.4
- molecule: "C1=N/C2=N/c3ccc(OCCN4CCCC4)c(c3)COC/C=C/COCc3cccc(c3)C(=C1)N2 [Pacritinib] (tested concentration range 1-10000 nM)"
  drug sensitivity score: 7.8
- molecule: "Cn1nnc2c(C(N)=O)ncn2c1=O [Temozolomide] (tested concentration range 10-100000 nM)"
  drug sensitivity score: 0
- molecule: "CN(C)C[C@@H]1CCn2cc(c3ccccc32)C2=C(C(=O)NC2=O)c2cn(c3ccccc23)CCO1 [Ruboxistaurin] (tested concentration range 1-10000 nM)"
  drug sensitivity score: 6.6
